target: T1, recombinant extracellular domain (ECD) of human TF, amino acid 1-219 of the mature chain, C-terminal His6-tag (human, UniProt P13726 33-251); experiment: Biacore
T1 construct: expressed in a mammalian system; used for ELISA and Biacore; biotinylated by NHS-ester for the Fab ELISA; also called His6-TF-ECD1-219; HumanTF1-219
Please respond with reported koff for every item in the list.

// below: answered binders
M1601 (antibody, V domains shown, complete MAb; FR4 is its own entry; also called H105/L3) VH: EVQLVQSGAEVKKPGESLRISCKGSGYTFGPYWIEWVRQMPGKGLEWMGDILPGTGYTVYSPSFQGHVTISADKSISTAYLQWSSLKASDTAMYYCARSGYYGNSGFAYWGQGTLVTVSS VL: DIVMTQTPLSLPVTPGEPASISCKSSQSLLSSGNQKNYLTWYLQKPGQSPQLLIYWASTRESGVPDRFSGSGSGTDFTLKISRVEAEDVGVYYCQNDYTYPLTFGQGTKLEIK: 4.6e-05 s⁻¹
M1585 (antibody, V domains shown, complete MAb; FR4 is its own entry; also called H139/L3) VH: EVQLVQSGAEVKKPGESLRISCKGSGYTFSPFWIEWVRQMPGKGLEWMGDIIPGTGYTNYSPSFQGHVTISADKSISTAYLQWSSLKASDTAMYYCARSGYYGNSGFAYWGQGTLVTVSS VL: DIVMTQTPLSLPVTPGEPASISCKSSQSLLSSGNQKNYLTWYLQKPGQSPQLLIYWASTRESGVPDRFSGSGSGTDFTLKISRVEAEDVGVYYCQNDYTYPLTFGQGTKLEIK: 9e-05 s⁻¹

Then there is this binder:
Exercise: For the binder M1589 (antibody, V domains shown, complete MAb; FR4 is its own entry; also called H187/L3) VH: EVQLVQSGAEVKKPGESLRISCKGSGYTFGPHWIEWVRQMPGKGLEWMGDILPGTGYTNYSPSFQGHVTISADKSISTAYLQWSSLKASDTAMYYCARSGYYGNSGFAYWGQGTLVTVSS VL: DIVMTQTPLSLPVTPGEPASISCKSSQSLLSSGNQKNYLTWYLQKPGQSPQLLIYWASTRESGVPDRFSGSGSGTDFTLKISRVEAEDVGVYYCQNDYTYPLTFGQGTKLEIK , report koff.
Solution: 7e-05 s⁻¹
